test: Standard protocol for determination of kcat and KM (continuous spectrophotometric assay, Acetyl CoA hydrolysis at 235 nm); format: biochemical; details: purified protein; about 23° C.; 20 mM HEPES pH 6.8, 10% ethylene glycol, 0.2 mM acetyl CoA
Simple rule here: Kcat less than 0.4 s⁻¹ is criterion met, otherwise criterion not met.

Solved cases (3 shown):
molecule: SEQ ID NO: 390: GAT polypeptide (protein, 6_19C3, GAT polypeptide) MIEVKPINAEDTYEIRHRILRPNQPLEACKYETDLLGGTFHLGGYYRGKLISIASFHQAEHPELEGQKQYQLRGMATLEGYREQKAGSTLIRHAEELLRKKGADLLWCNARTSASGYYKKLGFSEQGEVYDIPPIGPHILMYKKLT
category: criterion met
--
molecule: SEQ ID NO: 511: GAT polypeptide (protein, GAT1_32G1, GAT polypeptide) MIEVKPINAEDTYEIRHRILRPNQPLEACMYETDLLGGTFHLGGYYRGKLISIASFHQAEHPELEGQKQYQLRGMATLEGYREQKAGSTLIRHAEELLRKKGADLLWCNARTSVSGYYEKLGFSEQGEVYDIPPIGPHILMYKKLT
category: criterion met
--
molecule: SEQ ID NO: 302: GAT polypeptide (protein, 13_7B12, GAT polypeptide) MIEVKPINAEDTYEIRHRILRPNQPLEACKYETDLLGSTFHLGGYYRGKLISIASFHQAEHPELEGQKQYQLRGMATLEGYREQKAGSTLIRHAEELLRKKGADLLWCNARTSASGYYKKLGFSEQGEVYDIPPTGPHILMYKKLT
category: criterion not met

Strictly below 0.4 s⁻¹ in Kcat? SEQ ID NO: 453: GAT polypeptide (protein, 10_4D5, GAT polypeptide) MIEVKPINAEDTYELRHRILRPNQPIEVCMYETDLLRGAFHLGGFYRGKLISIASFHQAEHSDLQGQKQYQLRGMATLEGYREQKAGSTLIRHAEQILRKRGADLLWCNARTSASGYYKKLGFSEQGEVFDTPPVGPHILMYKRIT
criterion not met

Is Kcat strictly under 0.4 s⁻¹ for the entry SEQ ID NO: 274: GAT polypeptide (protein, 10_1H3, GAT polypeptide) MIEVKPINAEDTYEIRHRILRPNQPLEACKYETDLLGGTFHLGGYYRGKLVSIASFHQAEHPELEGRKQYQLRGMATLEGYREQKAGSTLIRHAEELLRKKGADLLWCNARTSASGYYKKLGFSEQGEVYDIPPTGPHILMYKKLT ?
criterion not met

Take the molecule SEQ ID NO: 338: GAT polypeptide (protein, 15_6G11, GAT polypeptide) MIEVKPINAEDTYEIRHRILRPNQPLEACKYETDLLRGAFHLGGYYRGKLVSIASFHQAEHPELEGQKQYQLRGMATLEEYREQKAGSTLIRHAEELLRKKGADLLWCNARTSASGYYKKLGFSEQGKVYDIPPVGPHILMYKKLT and say whether its Kcat is less than 0.4 s⁻¹.
criterion not met
